Can you tell me melting point for the items I'm about to list?

// query Which melting point reading was recorded for the compound "O=C(O)c1ccccc1COc1ccccc1" ?
// result 126 to 128 °C

// query Queued: "Nc1nc2ccc(C(F)(F)F)cc2[nH]1"
// result 134 to 136 °C

// query And the next one, COc1ccc(CCC(C)(N)C(=O)O)cc1 (configuration not stated) ?
// result 303 to 305 °C

// query Again, but for "COC(=O)c1c(S)nc(=O)[nH]c1C"
// result 225 to 227 °C

// query Please answer likewise for "Fc1cc(Br)cc2cc(Br)cnc12"
// result 161 to 163 °C

// query What about "NNC(=O)c1cnccn1" ?
// result 170 to 172 °C

// query Quick one: "O=C(CCl)NCc1ccccc1[N+](=O)[O-]"
// result 93 to 95 °C
